Measured melting point, listed per entry for reference.

Reference set (4 entries):
* CC(=O)N1CCc2cc(Br)c(S(=O)(=O)N3CCCC3)cc21 | 238 to 240 °C
* CC(=O)N1CCc2cc(Br)c(S(=O)(=O)N3CCc4ccccc43)cc21 | 215 to 218 °C
* CC(=O)N1CCc2cc(Cl)c(S(=O)(=O)NC3CCCCC3)cc21 [10b] | 230 to 230.5 °C
* COCCN(CCOC)S(=O)(=O)c1cc2c(cc1Cl)CCN2C(C)=O [10f] | 93.2 to 94.4 °C

Consider the record given below.
Form: compound = CC(=O)N1CCc2cc(Br)c(S(=O)(=O)NC3CCCCC3)cc21 ; melting point = 226 to 228 °C
